Origin of the recorded values: patent US11673901B2

biological target: UniProt:Q06124; assay: SHP2 allosteric inhibition assay (DiFMUP prompt fluorescence); type: biochemical; conditions: 0.2 nM SHP2 activated with 0.5 μM Activating Peptide 1 or 2; substrate DiFMUP; Table 2, class symbols
pIC50: −log10 of the molar value.
observationType: pIC50

Consider the following illustrative entries.
Cc1nc(N2CCC3(CC2)CO[C@@H](C)[C@H]3N)n2ccnc2c1-c1ccc2nccnc2c1Cl; ≥ 7.30
Nc1nccc(Sc2cnc(N3CCC(c4ncc[nH]4)CC3)n3ccnc23)c1Cl; < 6.30
C[C@@H]1OCC2(CCN(c3ncc(Sc4ccnc(N5CC(C#N)C5)c4Cl)c4nccn34)CC2)[C@@H]1N; ≥ 7.30
Cc1nc(N2CCC3(CC2)CO[C@@H](C)[C@H]3N)n2ccnc2c1-c1cccc(C#N)c1Cl; ≥ 7.30
Nc1nccc(Sc2cnc(NCCO)n3ccnc23)c1Cl; < 6.30
C[C@@H]1OCC2(CCN(c3ncc(-c4ccnc(N)c4Cl)c4nccn34)CC2)[C@@H]1N; < 6.30

// lookup pIC50 for COc1ccc(-c2c(C)nc(N3CCC4(CC3)CO[C@@H](C)[C@H]4N)n3ccnc23)c(Cl)c1C#N
≥ 7.30

// lookup pIC50 for Cc1nc(N2CCC3(CC2)CO[C@@H](C)[C@H]3N)n2ccnc2c1-c1cccc2c(Cl)c[nH]c12
≥ 7.30

// lookup pIC50 for CNC(=O)O[C@H]1C[C@@H](N)C2(CCN(c3nc(C)c(-c4cccc(Cl)c4Cl)c4nccn34)CC2)C1
≥ 7.30

====

biological target: SHP2 (Homo sapiens (Human)); assay: SHP2 allosteric inhibition assay (DiFMUP prompt fluorescence); assay type: biochemical; settings: 0.2 nM SHP2 activated with 0.5 μM Activating Peptide 1 or 2; substrate DiFMUP; Table 2, class symbols
pIC50: −log10 of the molar value.
# Lookup of reported pIC50 keyed by entry

C[C@@H]1OCC2(CCN(c3ncc(Sc4ccnc(N)c4)c4nccn34)CC2)[C@@H]1N [Compound 16]; 6.30 to 7.30

// lookup pIC50 for Nc1nccc(Sc2cnc(N3CC4(CC(N)C4)C3)n3ccnc23)c1Cl [Compound 19]
< 6.30

// lookup pIC50 for C[C@@H]1OCC2(CCN(c3ncc(Sc4ccnc(N)c4Cl)c4nccn34)CC2)[C@@H]1N [Compound 1]
≥ 7.30

====

# Lookup of reported pIC50 keyed by entry
molecular target: SHP2 (Homo sapiens (Human), UniProt Q06124); test: SHP2 allosteric inhibition assay (DiFMUP prompt fluorescence); type: biochemical; conditions: 0.2 nM SHP2 activated with 0.5 μM Activating Peptide 1 or 2; substrate DiFMUP; Table 2, class symbols
Sequence (Q06124 whole entry): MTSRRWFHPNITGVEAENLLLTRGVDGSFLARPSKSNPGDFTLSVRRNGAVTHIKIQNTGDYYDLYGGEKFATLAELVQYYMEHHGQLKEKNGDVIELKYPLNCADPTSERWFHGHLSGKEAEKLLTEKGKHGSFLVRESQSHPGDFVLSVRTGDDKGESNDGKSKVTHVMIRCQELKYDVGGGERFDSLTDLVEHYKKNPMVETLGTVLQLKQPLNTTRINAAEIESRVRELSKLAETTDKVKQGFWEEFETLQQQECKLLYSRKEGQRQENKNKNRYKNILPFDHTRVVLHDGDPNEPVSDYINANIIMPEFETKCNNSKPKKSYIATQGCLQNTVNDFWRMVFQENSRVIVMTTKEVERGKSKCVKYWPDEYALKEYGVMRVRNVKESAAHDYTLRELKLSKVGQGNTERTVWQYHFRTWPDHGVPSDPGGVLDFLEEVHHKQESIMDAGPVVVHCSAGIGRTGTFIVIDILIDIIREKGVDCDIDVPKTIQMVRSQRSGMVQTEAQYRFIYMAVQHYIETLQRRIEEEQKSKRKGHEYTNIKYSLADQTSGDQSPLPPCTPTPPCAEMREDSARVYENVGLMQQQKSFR
pIC50: −log10 of the molar value.

Consider the following illustrative entries.
Nc1nccc(Sc2cnc(O[C@H]3CC[C@@H](N)C3)n3ccnc23)c1Cl; < 6.30
CC1(N)CCN(c2ncc(Sc3ccnc(N)c3Cl)c3nccn23)CC1; 6.30 to 7.30
Cc1nc(N2CCC3(CC2)CO[C@@H](C)[C@H]3N)n2ccnc2c1-c1cccc(Cl)c1Cl; ≥ 7.30
Cc1nc(N2CCC3(CC2)CO[C@@H](C)[C@H]3N)n2ccnc2c1-c1ccnc2cc[nH]c12; ≥ 7.30

Next item in the queue.
// lookup pIC50 for C[C@@H]1OCC2(CCN(c3ncc(Sc4ccnc(N5CC(O)C5)c4Cl)c4nccn34)CC2)[C@@H]1N
≥ 7.30
